Reported Int.* (Ratio) (Interference) values for a set of compounds
Molecular target: HCV NS3 helicase NS3h_1b(con1) (Hepatitis C virus genotype 1b, UniProt Q9WMX2)
Construct: truncated C-terminally His-tagged NS3 proteins lacking the N-terminal protease, called NS3h; His-tag (C); made in house
Sequence (Q9WMX2 1192-1657): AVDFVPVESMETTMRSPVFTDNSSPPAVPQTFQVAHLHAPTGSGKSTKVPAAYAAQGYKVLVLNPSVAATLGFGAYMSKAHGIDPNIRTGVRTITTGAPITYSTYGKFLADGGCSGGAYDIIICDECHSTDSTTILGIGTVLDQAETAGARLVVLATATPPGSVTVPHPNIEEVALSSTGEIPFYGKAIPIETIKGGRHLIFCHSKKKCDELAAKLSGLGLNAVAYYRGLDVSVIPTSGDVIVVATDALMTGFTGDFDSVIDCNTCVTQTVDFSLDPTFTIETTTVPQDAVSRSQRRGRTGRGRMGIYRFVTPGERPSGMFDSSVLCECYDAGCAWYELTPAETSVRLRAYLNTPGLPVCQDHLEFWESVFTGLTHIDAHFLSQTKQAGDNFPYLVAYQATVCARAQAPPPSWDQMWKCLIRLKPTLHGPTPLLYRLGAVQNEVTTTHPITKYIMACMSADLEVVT
Experiment: MBHA screen of NCI mechanistic set library at 20 μM (percent inhibition, compound interference)
Assay type: biochemical
Conditions: compounds at 20 μM; assay interference calculated with Equation 2 (fluorescence vs DMSO-only controls before ATP)
Method: All molecular beacon-based helicase assays (MBHAs) were performed according to known methods (Belon & Frick (2008) supra; Belon & Frick (2009) supra). […] Fluorescence was read before ATP (F0) addition and 30 minutes after ATP was added to 1 mM (F30) using a Tecan Infinite M200 fluorescence microplate reader with excitation and emission wavelengths set to 643 and 670 nm, respectively. […]
Include the unit after the number when you answer.

Recorded results for 6 compounds are shown here.
Input line: So what's the measured Int.* (Ratio) (Interference) for this one? COc1ccc(C2C=C(c3ccc4c(c3)OCO4)Oc3c2c(=O)oc2ccccc32)cc1OC (stereo not shown) [Compound 211489]
Output line: 0.82 Ratio

Input line: What do we get for CC1=CC(=O)c2ccccc2C1=O [Compound 4170] ?
Output line: 1.09 Ratio

Input line: Same thing, different compound: Cc1ccc(Cl)c2c(N=Nc3ccccc3[N+](=O)[O-])c(O)[nH]c12 [Compound 118735]
Output line: 0.96 Ratio

Input line: Item: CC(=O)C1=C(O)C2(O)C(=O)c3c(c(C)c4ccc(C)c(O)c4c3O)CC2C(N)C1=O.CCCCCCCCCCCCOS(=O)(=O)O (stereo not shown) [Compound 73495]
Output line: 1.01 Ratio

Input line: // same read-out, input: CN(C)C(=S)/N=c1\ss/c(=N\C(=S)N(C)C)n1-c1ccc2c(c1)OCO2 [Compound 622589]
Output line: 0.94 Ratio

Input line: Now give it for CC(C)CCCCCCCCCCCCC(=O)NCC(=O)N[C@@H]1[C@@H](O)[C@H](O)[C@@H](Nc2ncnc3nc[nH]c23)O[C@H]1[C@@H](O)CO [Compound 65104] too.
Output line: 1.01 Ratio

Next:
Input line: For the compound CC1=C[C@H]2O[C@@H]3[C@H](O)[C@@H](O)[C@@](C)([C@@]2(CO)CC1)[C@]31CO1 [Compound 269142] , what Int.* (Ratio) (Interference) is on record?
Output line: 1.07 Ratio

====

Biological target: HCV NS3 helicase NS3h_1b(con1) (Hepatitis C virus genotype 1b, UniProt Q9WMX2)
Construct: truncated C-terminally His-tagged NS3 proteins lacking the N-terminal protease, called NS3h; His-tag (C); made in house
Test: MBHA screen of NCI mechanistic set library at 20 μM (percent inhibition, compound interference)
Type: biochemical
Settings: compounds at 20 μM, MBHA with DNA substrate; assay interference calculated with Equation 2
Reported Int.* (Ratio) (Interference) is given for each of the following compounds.
Give just the numeric value; Ratio need not be written.

Below: 5 compounds and their reported Int.* (Ratio) (Interference).
Input line: Give its Int.* (Ratio) (Interference) value. Item: CC(CN(C)C)C(=O)c1ccccc1C(=O)O (centres unmarked) [Compound 22992]
Output line: 0.86

Input line: Same question for COc1cc(/C=C2\S/C(=N/Nc3nc(-c4ccc(Br)cc4)cs3)NC2=O)cc(OC)c1OC [Compound 657457] please.
Output line: 1.06

Input line: # repeat for CCN(CC)CCCC(C)Nc1c2ccc(Cl)cc2nc2ccc(OC)cc12.Cl.Cl (centres unmarked) [Compound 14229]
Output line: 1.08

Input line: And the next one, CC(C)CCCCCCCCCCCCC(=O)NCC(=O)NC1C(C)OC(Nc2ncnc3nc[nH]c23)C(O)C1O (centres unmarked) [Compound 268251] ?
Output line: 0.96

Input line: Entry to check: CCCC[S+]([O-])CC(CO)NC(=O)/C=C\c1c(C)[nH]c(=O)[nH]c1=O (centres unmarked) [Compound 241509]
Output line: 1.01

***
Input line: Sample O=C(Nc1cccc(C(F)(F)F)c1)C(=O)C(C(=O)c1ccc(Cl)c(Cl)c1)C1OC(=O)c2ccccc21 (centres unmarked) [Compound 644794] — what was its Int.* (Ratio) (Interference)?
Output line: 0.96

Input line: Let us now turn to CON(C)C(=O)C1CCCO1 (centres unmarked) [Compound 695218]
Output line: 0.99

Input line: Also, Nc1ncnc2c1ncn2C1OC(CO)C(O)C1O (centres unmarked) [Compound 70422] please.
Output line: 0.85
